Assay: clinical;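 note: patient plasma drug levels measured by validated HPLC with mass spectrometric detection after a 3 h fast, PK parameters from non-compartmental analysis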
Conditions: human, plasma, oral, 5 mg
QUANTITY NAME: AUC(0-t) (µM·h)
Form entry: value (µM·h) — number only.

Could you tell me which AUC(0-t) is on file for "CC(=O)N1CCN(CCOc2cc(OC(C)C)c3c(Nc4c(Cl)cnc5c4OCO5)ncnc3c2)CC1" ? 0.624

----------
Assay: clinical
Details: human, plasma, oral
QUANTITY NAME: half-life (h)
Form entry: value (h) — number only.

Could you tell me which half-life is on file for CC(=O)N1CCN(CCOc2cc(OC(C)C)c3c(Nc4c(Cl)cnc5c4OCO5)ncnc3c2)CC1 [AZD0424] ? 8.4

----------
Assay: clinical
Settings: human, plasma, oral, 80 mg
QUANTITY NAME: Cmax

Could you tell me which Cmax is on file for "CC(=O)N1CCN(CCOc2cc(OC(C)C)c3c(Nc4c(Cl)cnc5c4OCO5)ncnc3c2)CC1" ? 1670 nM
